Give measured % 3 h increase (SIRT 1 expression compared to control) for each item. Keep answers brief.
- System: SIRT 1
- experimental_protocol: Western blot analysis of the expression of SIRT 1 in HeLa cells
- Format: cell-based, Human
- experimental_setup: 10 μM; 3 h; HeLa cells
Answer format: number, then unit.

Solved entries:
Oc1ccc(C=Cc2cc(O)cc(O)c2)cc1 [Resveratrol, reference compound]	47%
COc1ccc2cc3[n+](cc2c1OC)CCc1cc2c(cc1-3)OCO2 [Berberine, Berberine Chloride Hydrate]	65%
OCCc1ccc(O)cc1 [Tyrosol]	53%

Kindly consider the entry below.
### Prompt Name the recorded % 3 h increase (SIRT 1 expression compared to control) of the compound listed here: O.O.O=c1c(O)c(-c2ccc(O)c(O)c2)oc2cc(O)cc(O)c12 [Quercetin, Quercetin Dihydrate]
### Response 27%
